- Test system: NCI-H522 lung
- Assay name: NCI-60 one-dose screen, 48 h (100 = growth as untreated, 0 = no growth, -100 = all killed)
- Settings: 10 µM unless noted
About 83,000 compounds went through this panel and 20% of them were active in at least one assay; those are over-represented in the sample as a whole.
Property label: growth (%)

{"columns": ["Molecule", "Assayed target", "Reported"],
 "data": [
  ["CCn1cc(/C=C2\\Oc3cc(OCC#N)ccc3C2=O)c2cc(OC)ccc21", "NCI-H522 lung", 56.7],
  ["Nc1nccc2c1ccn2-c1ccc(NC(=O)Nc2cccc(C(F)(F)F)c2)cc1", "NCI-H522 lung", 87.2],
  ["COc1ccc2c(c1)nnc1c3cccnc3[nH]c21", "NCI-H522 lung", -34.4],
  ["Cc1ccc(Cn2cc(COc3ccc4c5ccnc(C)c5n(CCCc5ccccc5)c4c3)nn2)cc1", "NCI-H522 lung", 66.4],
  ["O=C(O)c1ccc(-n2cc(/C=N/Nc3ccc(Cl)cc3)c(-c3ccc(F)c(F)c3)n2)cc1", "NCI-H522 lung", 47.6],
  ["Nn1c(SCC(=O)Nc2cc(Cl)c(Cl)cc2Cl)nnc1-c1cc(F)c(Cl)cc1Cl", "NCI-H522 lung", 90.9],
  ["ClC1c2ccccc2CCc2ccccc21", "NCI-H522 lung", 76.6],
  ["O=C(Cn1c2ccccc2c2ccncc21)N/N=C/c1cc(O)c(O)c(O)c1", "NCI-H522 lung", 84.5],
  ["NS(=O)(=O)c1ccc(Nc2nc(O)c(/C=C3\\C=Nc4ccccc43)s2)cc1", "NCI-H522 lung", 92],
  ["Fc1ccc(/C=N/n2c(-c3cc(Cl)cc(Cl)c3Cl)nn(CNc3ccc(Cl)nn3)c2=S)cc1", "NCI-H522 lung", 82.8],
  ["CC1OC(n2c3ccccc3c3c4c(c5c6ccccc6[nH]c5c32)C(=O)N(CCN[C@@H]2CCC[C@H]2N)C4=O)CC(O)C1O (stereo partly specified)", "NCI-H522 lung", -9.89],
  ["CC1CCC(C(C)C)C(NN)C1 (stereo unspecified)", "NCI-H522 lung", 70.9],
  ["O=C(Nc1ccc(-n2ccc3c(NC(=O)c4ccccc4)ncnc32)cc1)c1cccc(C(F)(F)F)c1", "NCI-H522 lung", 45.4],
  ["COc1ccc(CCNC=O)cc1OC", "NCI-H522 lung", 131],
  ["CCOC(=O)n1cnc2c(Cl)ncnc21", "NCI-H522 lung", 108],
  ["CN1CCN(CC(O)COc2c(Br)c(Br)c(Br)c3c2OC(C)(C)C3)CC1 (stereo unspecified)", "NCI-H522 lung", 42.6],
  ["COc1ccc(/C=C/C(=O)c2ccc(NC(=O)CSc3nnc(-c4cc(OC)c(OC)c(OC)c4)o3)cc2)cc1", "NCI-H522 lung", -76.4],
  ["COc1ccc(/C(Cl)=N/N=C(\\Cl)c2cc(OC)c(OC)c(OC)c2)cc1OC(C)=O", "NCI-H522 lung", 50.2],
  ["COc1ccc(-c2ccc(NC(=O)Nc3ccc(Cl)c(C(F)(F)F)c3)c(C)n2)cc1", "NCI-H522 lung", 24.8],
  ["CN(C)C(=O)Nc1nc2cc(Cl)c(Cl)cc2[nH]1", "NCI-H522 lung", -58.1],
  ["O=[N+]([O-])c1cccc(C2c3ccccc3Oc3ccccc32)c1", "NCI-H522 lung", 80.8]
]}

----------
- Test system: MOLT-4 leukemia
- Assay name: NCI-60 one-dose screen, 48 h
- Settings: 10 µM unless noted
This is part of a sample that, as a whole, favours compounds with a hit. Of some 83,000 tested, about 20% had one in any assay. The source made the active and inactive calls. How the source made its calls: active means growth percent below 10; inactive means the rest.
Possible outcomes: true (1) for active, false (0) for inactive

{"columns": ["Molecule", "Label"],
 "data": [
  ["S=c1n(CNc2ccc(Cl)nn2)nc(-c2cc(Cl)cc(Cl)c2Cl)n1/N=C/c1ccc(Cl)cc1", "false (0)"],
  ["CC(=O)CC/C=C(\\C)[C@H](O)[C@H](C)C(=O)O[C@H]1C[C@H](C)C=C2C=C[C@@]3(C)O[C@@H](O)CC(=O)[C@]3(C)[C@H]21", "true (1)"],
  ["CC12CCC3C(CCC4CC(O)CCC43C)C1C/C(=C/O)C(=O)O2 (stereo not given)", "false (0)"],
  ["Cc1nccc2c3ccc(OCc4cn(-c5ccc(Br)cc5)nn4)cc3n(CCCc3ccccc3)c12", "false (0)"],
  ["CC(=O)c1ccc2c(c1)C1C=CCC1[C@H](c1cc3c(cc1Br)OCO3)N2 (stereo not given in full)", "true (1)"],
  ["CC(=O)Cc1cccnc1", "false (0)"],
  ["COC(=O)c1ccc2c(c1)Oc1ccc(Cl)cc1-c1cc(C)nn1-2", "false (0)"],
  ["FC(F)(F)c1cn(CC2CNC2)c2ncnc(Cl)c12", "false (0)"],
  ["O=C(N/N=C1\\SCC(=O)N1c1ccccc1)c1cc(-c2cc3ccccc3o2)nn1-c1ccccc1", "false (0)"],
  ["COc1cc(-c2nc3sc(C)cn3c2/C=C2\\C(=O)Nc3ccccc32)c(Br)c(OC)c1OC", "false (0)"],
  ["Nc1ncnc2c1c(-c1ccc(Oc3ccccc3)cc1)nn2C[C@@H]1SSC[C@H]1O", "true (1)"],
  ["O=[N+]([O-])c1ccccc1NC1c2ccccc2Oc2ccccc21", "false (0)"],
  ["COc1ccc(C(=O)NC(=O)Nc2ccc3c(c2)NC(=O)/C3=C\\c2[nH]c(C)c(C(=O)O)c2C)cc1", "false (0)"],
  ["CCc1cccc(-c2ccccc2)c1", "false (0)"],
  ["COC(=O)c1oc2c(C(C)=O)c(OCCCN(C)C)ccc2c1C", "false (0)"],
  ["CN1C(=O)C2(SCC(C(=O)NCC(=O)OC(C)(C)C)N2C(=O)C2CCCCC2)c2ccccc21 (stereo not given)", "false (0)"],
  ["C#CCn1c(-c2cc(OC)c(OC)cc2Br)nc(-c2ccccc2)c1-c1ccccc1", "false (0)"],
  ["CCCCn1c(-c2cccc(OC)c2)nc2cc(OC)c(OC)cc2c1=O", "false (0)"],
  ["O=C(Nc1cccc(-n2ccc3c(NC(=O)c4ccccc4)nccc32)c1)Nc1cc(C(F)(F)F)cc(C(F)(F)F)c1", "true (1)"],
  ["c1cncc(-c2nc3ccccc3[nH]2)c1", "false (0)"]
]}

----------
- Test system: IGROV1 ovarian
- Assay name: NCI-60 one-dose screen, 48 h (100 = growth as untreated, 0 = no growth, -100 = all killed)
- Settings: 10 µM unless noted
This is part of a sample that, as a whole, favours compounds with a hit. Of some 83,000 tested, about 20% had one in any assay.

{"columns": ["Compound", "Measurement units", "growth"],
 "data": [
  ["Cc1[nH]n(C(=O)c2ccncc2)c(=O)c1N=Nc1ccc(S(=O)(=O)Nc2ccncn2)cc1", "%", 101],
  ["Nc1ncnc2c1c(C(F)(F)F)cn2[C@@H]1O[C@H](CO)[C@@H](O)[C@H]1O", "%", 12.9],
  ["O=C1COc2ccccc2C(=O)N1CCCCN1CCCCC1", "%", 92],
  ["O=C(Nc1ccc(-n2ccc3c(NC(=O)c4ccccc4)ncnc32)cc1)c1cccc(C(F)(F)F)c1", "%", 43.1],
  ["CC(C(C(=O)N1CCCCC1)N1CCCCC1)N1CCCCC1 (stereo not given)", "%", 160]
]}

----------
- System: NCI-H23 lung
- Assay name: NCI-60 one-dose screen, 48 h
- Settings: 10 µM unless noted
About 83,000 compounds went through this panel and 20% of them were active in at least one assay; those are over-represented in the sample as a whole. Activity calls are given as the source filed them. The calls were made as follows: active = growth percent below 10; inactive = the rest.
Outcome codes: Y (active), N (inactive)

{"columns": ["Molecule", "Label"],
 "data": [
  ["COC(=O)c1oc2c(C(C)=O)c(OCCCN(C)C)ccc2c1C", "N"],
  ["Cc1cccc(NCS(=O)(=O)O)c1", "N"],
  ["Nc1ncnc2c1ncn2C1OC(COC(c2ccccc2)(c2ccccc2)c2ccccc2)C(O)C1O (stereo unspecified)", "N"],
  ["COc1ccc(-c2nn(-c3ccc(NC(=O)c4ccc(Cl)c(C(F)(F)F)c4)cc3)cc2-c2ccncc2)cc1Cl", "N"],
  ["O=C1COc2ccccc2C(=O)N1CCCCN1CCCCC1", "N"],
  ["CC(Cl)(CCl)CS(=O)(=O)c1ccc(Cl)cc1 (stereo unspecified)", "N"],
  ["CS(=O)(=O)Nc1cccc(-c2ccc3ncnc(Nc4ccc(F)c(Cl)c4)c3c2)c1", "N"],
  ["CC1(C)N=C(N)N=C(N)N1c1ccc(F)c(C(F)(F)F)c1", "N"],
  ["CCN(CC)CCNCC(O)Cc1ccc(OC)cc1 (stereo unspecified)", "N"],
  ["Fc1ccc(/C=N/n2c(-c3cc(Cl)cc(Cl)c3Cl)nn(CNc3ccc(Cl)nn3)c2=S)cc1", "N"],
  ["C=C(C)[C@@H]1C/C=C(\\COC(=O)[C@H](OC(C)=O)C(NC(=O)c2ccccc2)c2ccccc2)CC[C@H]2O[C@]2(C)CC/C=C(\\C)CC1 (stereo partly specified)", "N"],
  ["FC(F)(F)c1cn(CCN2CCOCC2)c2ncnc(Cl)c12", "N"],
  ["CC1(C)Cc2c(Br)c(Br)c(Br)c(OCC(O)CN3CCN(c4ccccn4)CC3)c2O1 (stereo unspecified)", "N"],
  ["Nc1nc(Cl)cc(NCc2ccc(CNc3cc(Cl)nc(N)n3)cc2)n1", "N"],
  ["CC(NCCC(c1ccccc1)c1ccccc1)c1ccccc1 (stereo unspecified)", "N"],
  ["CCc1ccc(C2=C/C(=C/c3ccc(Cl)cc3)C(=O)N2CCc2ccc(S(N)(=O)=O)cc2)cc1", "N"],
  ["COc1ccc2c(c1)O/C(=C/c1ccc(OCC(=O)Nc3ccc(S(N)(=O)=O)cc3)cc1)C2=O", "N"],
  ["O[C@@H]1CCO[C@H](c2ccc3ccccc3c2)C1", "N"],
  ["O=S(=O)(CCN1CCOCC1)Nc1cncc(-c2ccc3ncnc(Nc4ccc(F)c(Cl)c4)c3c2)c1", "N"],
  ["O=c1c2ccccc2[nH]n1Cc1ccc2c(c1)OCO2", "N"],
  ["CCOc1ccc(-n2c(-c3cc(OC)c(OC)c(OC)c3)nnc2-c2ccc(OC)cc2N)cc1", "N"],
  ["COc1ccc(-c2cnc(-c3ccc(F)cc3)[nH]2)cc1", "N"],
  ["CN(C)c1ccc(/C=N/N=C(N)N)cc1", "N"],
  ["O=C(N/N=C/c1ccccc1O)c1ccccc1O", "N"],
  ["COc1ccc(-c2cc3ccc(N(C)C)cc3nc2N)c(F)c1", "N"],
  ["C=C1C(=O)O[C@H]2[C@H]1CC/C(COC(=O)CCCC(=O)OC/C1=C/CC[C@@]3(C)O[C@H]3[C@H]3OC(=O)C(=C)[C@@H]3CC1)=C\\CC[C@@]1(C)O[C@@H]21", "N"],
  ["COc1ccc(Cl)cc1NC(=O)c1cc2c(n1C)-c1nc(NC(=O)C(C)C)sc1CC2", "N"],
  ["CC1OC(n2c3ccccc3c3c4c(c5c6ccccc6[nH]c5c32)C(=O)N(CCN[C@@H]2CCC[C@H]2N)C4=O)CC(O)C1O (stereo partly specified)", "N"],
  ["Cc1ccc2c(C3C(C#N)=C(N)Oc4cc5ccccc5cc43)cc(=O)oc2c1 (stereo unspecified)", "N"],
  ["Nc1nc(=S)ss1", "N"],
  ["O=[N+]([O-])c1cccc(C(c2ccccc2)c2ccccc2)c1", "N"],
  ["COc1cc(/C=C2/Oc3cc4occc4c(OC)c3C2=O)ccc1OCC(=O)Nc1ccncc1", "N"],
  ["COC(=O)c1ccc(NC(N)=NCC(C)(C)COc2ccc(C(F)(F)F)cc2)nc1", "N"],
  ["N#CC1=C(N)Oc2c(ccc3ccccc23)C1c1cc(=O)oc2ccc(Cl)cc12 (stereo unspecified)", "N"],
  ["COc1ccc2c(c1)nnn1c3ncccc3c(N=O)c21", "Y"],
  ["C#C[C@H](O)/C=C/CCCCCCC#C[C@H](O)CC[C@@H](O)C#CCCCCCC/C=C/[C@@H](O)C#C", "N"],
  ["COc1ccc(/C=C/C(=O)/C=C(/C=C/c2ccc(OC)c(OC)c2OC)OB(F)F)c(OC)c1OC", "N"],
  ["Cc1cc(C)c(O)c(C(=O)CC(Br)C(=O)O)c1 (stereo unspecified)", "N"],
  ["Nc1nccc2c1ccn2-c1ccc(NC(=O)Nc2cccc(C(F)(F)F)c2)cc1", "N"],
  ["OCc1cnccc1NC12CC3CC(CC(C3)C1)C2", "N"],
  ["O=C(C[n+]1cccc(Br)c1)c1ccc2c(c1)CCCC2", "N"]
]}
